Listed molecules paired with reported Ratio IC50
# study.system: Neuronal acetylcholine receptor; alpha4/beta2 (Homo sapiens, UniProt P17787+P43681)
# measurement.protocol: Antagonist activity at alpha4beta2 nAChR (unknown origin) expressed in Xenopus laevis oocytes assessed as inhibition of Ach-induced channel activation at -100 mV holding potential treated for 1 min by two electrode voltage-clamp assay relative to PhTX-343 IC50
# Format: cell-based

Solved cases below.
                                   molecule                              study_system  readout_name  reading
0  NCCCNCCCCNCCCNC(=O)[C@H](CC1CCCCC1)NC(=O)C1CCC1  Neuronal acetylcholine receptor; alpha4/beta2 (Homo sapiens, UniProt P17787+P43681)    Ratio IC50      3.9
1  CCCC(=O)N[C@@H](Cc1ccccc1)C(=O)NCCCNCCCCNCCCN  Neuronal acetylcholine receptor; alpha4/beta2 (Homo sapiens, UniProt P17787+P43681)    Ratio IC50      2.9
2  CCCC(=O)N[C@@H](CC1CCCCC1)C(=O)NCCCNCCCCNCCCN  Neuronal acetylcholine receptor; alpha4/beta2 (Homo sapiens, UniProt P17787+P43681)    Ratio IC50     31.1
3  NCCCNCCCCNCCCNC(=O)[C@H](CC1CCCCC1)NC(=O)C1CCCC1  Neuronal acetylcholine receptor; alpha4/beta2 (Homo sapiens, UniProt P17787+P43681)    Ratio IC50     14.8
4  NCCCNCCCCNCCCNC(=O)[C@H](CC1CCCCC1)NC(=O)C1CCCCCC1  Neuronal acetylcholine receptor; alpha4/beta2 (Homo sapiens, UniProt P17787+P43681)    Ratio IC50      2.8
5  NCCCNCCCCNCCCNC(=O)[C@H](CC1CCCCC1)NC(=O)c1ccc(-c2ccccc2)cc1  Neuronal acetylcholine receptor; alpha4/beta2 (Homo sapiens, UniProt P17787+P43681)    Ratio IC50      3.1
6  NCCCNCCCCNCCCNC(=O)[C@H](CC1CCCCC1)NC(=O)Cc1cccc2ccccc12  Neuronal acetylcholine receptor; alpha4/beta2 (Homo sapiens, UniProt P17787+P43681)    Ratio IC50      5.5
7  NCCCNCCCCNCCCNC(=O)[C@H](CC1CCCCC1)NC(=O)/C=C/c1ccccc1  Neuronal acetylcholine receptor; alpha4/beta2 (Homo sapiens, UniProt P17787+P43681)    Ratio IC50      6.6
8  NCCCNCCCCNCCCNC(=O)[C@H](CC1CCCCC1)NC(=O)CC1CC2CCC1C2 (stereo not given in full)  Neuronal acetylcholine receptor; alpha4/beta2 (Homo sapiens, UniProt P17787+P43681)    Ratio IC50      3.1

API: the following record is the query input.
Q) Given the molecule NCCCNCCCCNCCCNC(=O)[C@H](CC1CCCCC1)NC(=O)C1CCCCC1 , write its reported Ratio IC50.
A) 2.6

Where do the numbers come from? From ChEMBL document CHEMBL4359833.
